Assay: ACEA_AR_agonist_AUC_viability: ACEA Biosciences xCELLigence Real-Time Cell Analysis on Androgen Receptor Agonism for Viability (AID 2283775)
Records with an inconclusive call do not appear. Calls of active or inactive are those of the source. The calls were made as follows: active = hit-call score of the fitted dose curve at least 0.9, where 1 is the maximum; inconclusive = response in the unintended direction; inactive = score below 0.9.
Outcome codes: label 1 (active), label 0 (inactive)

{"columns": ["molecule", "assignedLabel"],
 "data": [
  ["Nc1nc(N)c2nc(CNc3ccc(C(=O)N[C@@H](CCC(=O)O)C(=O)O)cc3)cnc2n1", "label 0"],
  ["Cc1cc(=O)[nH]c(=S)[nH]1", "label 0"],
  ["O=C(O)Cc1ccccc1Nc1c(Cl)cccc1Cl", "label 1"],
  ["O=C(N[C@@H](Cc1ccccc1)[C@@H](O)C(=O)N1C[C@@H](O)[C@@H](O)C1)c1cc2cc(Cl)ccc2[nH]1", "label 1"],
  ["COC(=O)c1ccc(O)cc1", "label 0"],
  ["CCCCCCCCCCCCCO", "label 0"]
]}
